Experiment: qHTS assay for small molecule activators of the nuclear factor-kappa B (NF-kB) signaling pathway (AID 651749); note: % of control where 0% means no effect
Conditions: NF-kB-bla ME-180 cells, beta-lactamase FRET ratio, 16 h; stronger effect = higher value
Inconclusive results are not listed.
OBSERVATION_TYPE: activation (%)
Response body: numeric value in %, unit text excluded.

// worked examples, activation included
COMPOUND	OBSERVATION_TYPE	REPORTED_RESULT
CCCCOC(=O)c1ccccc1C(=O)O	activation	1.8
CCNP(=S)(OC)O/C(C)=C/C(=O)OC(C)C (centres undefined)	activation	0.112
Cc1cc(C)nc(NC(=O)NS(=O)(=O)c2ccccc2C(=O)OC2COC2)n1	activation	1.32

Quick note, activation for CC(Oc1ccc(Cl)cc1Cl)C(=O)O (centres undefined) landed at -1.28

Quick note, activation for CCOP(OCC)OCC landed at -0.0576

Quick note, activation for Clc1ccc(C2(Cn3cncn3)CC(Br)CO2)c(Cl)c1 (centres undefined) landed at -2.79

###

Test: Cell Viability - LYMP2-006 (AID 978);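 note: cells exposed to compound for 24 hours; nearly all actives have a fitted effect of over 60% in size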
Conditions: LYMP2-006 lymphoblastoid cell viability, qHTS; series mostly up to 92.2 µM
Results filed as inconclusive are left out. Calls of active or inactive are those of the source. Calls come from the whole dose curve; as a rule, active = well fitted cell-killing curve with a large enough effect; inconclusive = small, poorly fitted or top-dose-only effect; inactive = flat fitted curve, though single readings scatter.
Response enum: active, inactive

Consider the following illustrative entries.
MOLECULE	ANSWER_LABEL
c1ccc2cc3c(cc2c1)-c1cccc2cccc-3c12	inactive
Clc1ccc(C(c2ccc(Cl)cc2)C(Cl)Cl)cc1	inactive
O=[N+]([O-])C(Br)Br	active
O=C(O)C1C(C(=O)O)C2(Cl)C(Cl)=C(Cl)C1(Cl)C2(Cl)Cl (stereo not given)	inactive

Hey, what did the test say about N#CSCSC#N ?
active

###

Target: Thyroid hormone receptor beta (Homo sapiens) (UniProt P10828)
Sequence (P10828 whole entry, looked up): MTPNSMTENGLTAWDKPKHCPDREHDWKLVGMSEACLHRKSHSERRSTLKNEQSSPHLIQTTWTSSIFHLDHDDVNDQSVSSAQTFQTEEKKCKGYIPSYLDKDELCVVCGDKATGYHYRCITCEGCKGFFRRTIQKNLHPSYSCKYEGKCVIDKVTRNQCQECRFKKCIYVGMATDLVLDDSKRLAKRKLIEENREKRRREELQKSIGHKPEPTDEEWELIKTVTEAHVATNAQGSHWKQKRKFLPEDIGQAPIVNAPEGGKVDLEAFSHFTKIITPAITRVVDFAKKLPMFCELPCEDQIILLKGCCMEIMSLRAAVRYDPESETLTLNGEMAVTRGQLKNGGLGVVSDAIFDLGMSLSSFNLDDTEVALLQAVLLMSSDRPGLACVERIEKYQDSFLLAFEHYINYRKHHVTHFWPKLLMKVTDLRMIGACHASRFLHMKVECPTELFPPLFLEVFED
Assay: qHTS assay for small molecule antagonists of thyroid hormone receptor beta signaling (AID 588547);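 note: cells stimulated with 0.4 nM T3 agonist during compound exposure; % is set by controls: 0 for no effect and ±100 for the full control effect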
Settings: TR-UAS-bla HEK293, beta-lactamase ratio, antagonist mode, 18 h
Inconclusive results are not listed.
List of activity change % (negative = inhibition) values.
Response body: numeric value in %, unit text excluded.

COMPOUND	REPORTED_RESULT
CCOP(=O)(OCC)OC(Cl)C(Cl)(Cl)Cl (stereo not given)	-2.35
CCSC(C)CC1CC(=O)C(/C(CC)=N/OC/C=C/Cl)=C(O)C1 (stereo not given)	-26.3
CCOP(=O)(OCC)OP(=O)(OCC)OCC	15.3
CCOc1nc(C(Cl)(Cl)Cl)ns1	11.9
CCOP(=O)(OCC)SCCSCC	-4.38

Quick note, activity change % (negative = inhibition) for O=[N+]([O-])c1ccc2ccc3cccc4ccc1c2c34 landed at -20.5

Quick note, activity change % (negative = inhibition) for CNC(=O)Oc1cc(C)c(SC)c(C)c1 landed at -16.8

Quick note, activity change % (negative = inhibition) for Nc1cnn(-c2ccccc2)c(=O)c1Cl landed at -13.7

Quick note, activity change % (negative = inhibition) for Cc1nn(-c2cc(NS(C)(=O)=O)c(Cl)cc2Cl)c(=O)n1C(F)F landed at -13.9

Quick note, activity change % (negative = inhibition) for CSc1nnc(C(C)(C)C)c(=O)n1N landed at -9.71

Quick note, activity change % (negative = inhibition) for CCCCOC(=O)c1ccccc1C(=O)O landed at 6.47

Quick note, activity change % (negative = inhibition) for CNC(=O)Oc1ccc(N(C)C)c(C)c1 landed at -0.485

Quick note, activity change % (negative = inhibition) for O=CNC(N1CCN(C(NC=O)C(Cl)(Cl)Cl)CC1)C(Cl)(Cl)Cl (stereo not given) landed at -18.1

FYI, the data here is from PubChem BioAssay (NCATS).
